Taken from the RNAGym collection of RNA variant scans (doi:10.7554/elife.80360).

B1: HDV Ribozyme (parent)
chain: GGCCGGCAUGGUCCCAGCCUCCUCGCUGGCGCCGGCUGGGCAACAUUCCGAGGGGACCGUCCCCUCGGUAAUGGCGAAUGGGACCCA

# Variants of: B1
# assay_protocol: self-cleavage, relative activity (ratio to wild type); higher = more cleavage; co-transcriptional
Group membership follows self-cleavage per the scheme group A = under 0.1, group B = from 0.1 up to 0.4, group C = 0.4 and over

C18A U60A
group B
C24U G34A
group A
C63G U65C
group B
C32A G35A
group B
C63A C75U
group A

In: Pick a category. Item: G50A C62U
Out: group C

In: Pick a category. Item: C32G A45C
Out: group A

In: Pick a category. Item: G50U A78C
Out: group B

In: Pick a category. Item: U47G A78C
Out: group B

In: Pick a category. Item: G55U C58U
Out: group C

In: Pick a category. Item: U37C C61U
Out: group C

In: Pick a category. Item: U27A U47G
Out: group C

In: Pick a category. Item: U12C G81A
Out: group A

In: Pick a category. Item: C32A A51C
Out: group B

In: Pick a category. Item: A8G C75U
Out: group B
